target entity: HLA-B*0702 (human)
assay info: competition vs 125I probe peptide, purified HLA
pIC50: −log10 of the molar value.
assay endpoint: pIC50

[[record]]
binder = "FPTTMNYPI [MAGE3.71.F1I9 FPTTMNYPI]"
assay_endpoint = "pIC50"
test_result = 7.23

[[record]]
binder = "FPTTMNYPLW [MAGE3.71.F1 FPTTMNYPLW]"
assay_endpoint = "pIC50"
test_result = 6.66

[[record]]
binder = "FPKTGLLI [MAGE2.196.F1I8 FPKTGLLI]"
assay_endpoint = "pIC50"
test_result = 6.87

[[record]]
binder = "FPTTMNYPL [MAGE3.71.F1 FPTTMNYPL]"
assay_endpoint = "pIC50"
test_result = 8.19


I: FPRALIETSYI [MAGE2.274.F1I11 FPRALIETSYI]
II: FPKAGLLIIV [MAGE3.196.F1 FPKAGLLIIV]
III: FPIGHLYIFA [MAGE3.170.F1 FPIGHLYIFA]
IV: FPLWSQSI [MAGE3.77.F1 FPLWSQSI]
Q. Descending sort on pIC50 required. Ranked list of labels, please, in the requested order.
A. I, III, IV, II
(I: 8.13, III: 7.41, IV: 6.91, II: 6.66)
